# MEASURED ON: Herceptin Fab with a kappa light chain and binding specificity for Her2/neu (from the monoclonal antibody trastuzumab)
# ASSAY INFO: BLI (ForteBio), biotinylated ligand on sensor, 1:1 fit
The entries below come with measured Kd values attached.
Please give a number only; it is taken to be in µM.

| BINDER | ASSAY METRIC | ASSAY RESULT |
| --- | --- | --- |
| affinity ligand SEQ ID NO: 92 (designed binder, biotinylated (AviTag system)) MGGGGSAAAGDEAQRWENQGAAYAARGDYDRAIEYYERALELEPNNAWAWWELGVAYAARGDYDRAIEYYERALELDPDDATAWSRLGHAYAARGDYDRAIGYYERALELDPENETARYLLEHARRARQGQAGQGGGSGLNDIFEAQKIEWHECHHHHHH | Kd | 0.028 |
| affinity ligand SEQ ID NO: 79 (designed binder, biotinylated (AviTag system)) MGGGGSAAAGDEADRWADLGAAYAARGDYDRAIEYYQRALELDPNNAWAWWDLGVAYAARGDYDRAIEYYQRALELDPNNAVAWRRLGHAYAARGDYDRAIEYYQRALELDPNNELAREQLERARRARHGQAGQGGGSGLNDIFEAQKIEWHECHHHHHH | Kd | 0.067 |

--- query ---
Please report the recorded Kd for affinity ligand SEQ ID NO: 83 (designed binder, biotinylated (AviTag system)) MGGGGSAAAGDEADRWADLGAAYAARGDYDRAIEYYQRALELDPNNAWAWWDLGVAYAARGDYDRAIEYYQRALELDPNNAVAWRRLGHAYAARGDYDRAIEYYQRALELDPNNELAREQLGRARRARRGQAGQGGGSGLNDIFEAQKIEWHECHHHHHH . 0.022

Data credit: patent US20250059258A1
